B1: EEHEE_rd4_0469 (parent)
chain: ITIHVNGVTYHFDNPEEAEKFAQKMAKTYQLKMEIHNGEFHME

Variants of: B1
Assay: folding stability dG (cDNA display proteolysis); higher = more stable
Conditions: PBS, room temperature
Label rule, in plain words: folding stability dG of 1 kcal/mol and up is condition met, under 1 kcal/mol is condition not met.

{"columns": ["sequence", "assignedClass"],
 "data": [
  ["ITIHVNGVTYHFDNPEEAEKFAQKMDKTYQLKMEIHNGEFHME [A26D]", "condition not met"],
  ["ITIHVNGVTYHFDNPEEAEKFAQKMAKTYQLKMEIQNGEFHME [H36Q]", "condition not met"]
]}

Q. Could you tell me if the measured folding stability dG of ITIHRNGVTYHFDNPEEAEKFAQKMAKTYQLKMEIHNGEFHME [V5R] reaches 1 kcal/mol or more?
A. condition not met

Q. Given ITIHVNGVTYHKDNPEEAEKFAQKMAKTYQLKMEIHNGEFHME [F12K] , state whether its folding stability dG is at least 1 kcal/mol.
A. condition not met

Q. Quick check: does ITIHVNGVTYHFDNPEEAEKFAQKMAKTYQLKYEIHNGEFHME [M33Y] have folding stability dG greater than or equal to 1 kcal/mol?
A. condition met
